Tested on: LNCaP
ASSAY NOTES: Cell cycle arrest in human LNCaP cells assessed as accumulation of cells at G2 phase at 20 to 50 uM after 24 hrs by DAPI staining-based fluorescence assay
Assay type: functional
EXPERIMENTAL SETUP: dose microM 20-50, time 24.0 hrs
Calls of active or inactive are those of the source. The calls are words filed in the database; no cut-off is given here.
Possible outcomes: y for active, n for inactive

INSERT INTO assay_data (smiles_string, target_or_system, category) VALUES
  ('COC1=C(Br)C[C@@]2(OC=C1Br)ON=C(C(=O)NCCCOc1c(Br)cc(CCN(C)C(=O)Nc3cccc(OC)c3OC)cc1Br)[C@H]2O', 'LNCaP', 'n'),
  ('COC1=C(Br)C[C@@]2(OC=C1Br)ON=C(C(=O)NCCCOc1c(Br)cc(CCN(C)C(=O)Nc3ccccc3)cc1Br)[C@H]2OC(=O)c1ccccc1', 'LNCaP', 'n'),
  ('CNCCc1cc(Br)c(OCCCNC(=O)C2=NO[C@]3(CC(Br)=C(OC)C(Br)=CO3)[C@@H]2O)c(Br)c1', 'LNCaP', 'y'),
  ('CCCCNC(=O)N(C)CCc1cc(Br)c(OCCCNC(=O)C2=NO[C@]3(CC(Br)=C(OC)C(Br)=CO3)[C@@H]2O)c(Br)c1', 'LNCaP', 'y'),
  ('C=CCNC(=O)N(C)CCc1cc(Br)c(OCCCNC(=O)C2=NO[C@]3(CC(Br)=C(OC)C(Br)=CO3)[C@@H]2O)c(Br)c1', 'LNCaP', 'y'),
  ('COC1=C(Br)C[C@@]2(OC=C1Br)ON=C(C(=O)NCCCOc1c(Br)cc(CCN(C)C(=O)NCc3ccc(OC)cc3)cc1Br)[C@H]2O', 'LNCaP', 'n'),
  ('COC1=C(Br)C[C@@]2(OC=C1Br)ON=C(C(=O)NCCCOc1c(Br)cc(CCN(C)C(=O)NCCc3ccc(F)cc3)cc1Br)[C@H]2O', 'LNCaP', 'y'),
  ('COC1=C(Br)C[C@@]2(OC=C1Br)ON=C(C(=O)NCCCOc1c(Br)cc(CCN(C)C(=O)Nc3ccc(C(C)=O)cc3)cc1Br)[C@H]2O', 'LNCaP', 'y'),
  ('COC1=C(Br)C[C@@]2(OC=C1Br)ON=C(C(=O)NCCCOc1c(Br)cc(CCN(C)C(=O)C(C)(C)C)cc1Br)[C@H]2O', 'LNCaP', 'y'),
  ('COC1=C(Br)C[C@@]2(OC=C1Br)ON=C(C(=O)NCCCOc1c(Br)cc(CCN(C)C(=O)C(C)(C)C)cc1Br)[C@H]2OC(=O)C(C)(C)C', 'LNCaP', 'y'),
  ('COC1=C(Br)C[C@@]2(OC=C1Br)ON=C(C(=O)NCCCOc1c(Br)cc(CCN(C)C(=O)NC3CCCC3)cc1Br)[C@H]2O', 'LNCaP', 'y');

====

System: LNCaP
ASSAY NOTES: Cell cycle arrest in human LNCaP cells assessed as accumulation of cells at M phase at 20 to 50 uM after 24 hrs by DAPI staining-based fluorescence assay
Format: functional
EXPERIMENTAL SETUP: dose microM 20-50, time 24.0 hrs
Activity calls are given as the source filed them. No cut-off for these calls is given here.
PARAMETER: Activity

INSERT INTO results (smiles_string, target_or_system, parameter, reported_result) VALUES
  ('CCCCNC(=O)N(C)CCc1cc(Br)c(OCCCNC(=O)C2=NO[C@]3(CC(Br)=C(OC)C(Br)=CO3)[C@@H]2O)c(Br)c1', 'LNCaP', 'Activity', 'Active'),
  ('COC1=C(Br)C[C@@]2(OC=C1Br)ON=C(C(=O)NCCCOc1c(Br)cc(CCN(C)C(=O)C(C)(C)C)cc1Br)[C@H]2O', 'LNCaP', 'Activity', 'Active'),
  ('CNCCc1cc(Br)c(OCCCNC(=O)C2=NO[C@]3(CC(Br)=C(OC)C(Br)=CO3)[C@@H]2O)c(Br)c1', 'LNCaP', 'Activity', 'Active'),
  ('COC1=C(Br)C[C@@]2(OC=C1Br)ON=C(C(=O)NCCCOc1c(Br)cc(CCN(C)C(=O)Nc3ccccc3)cc1Br)[C@H]2OC(=O)c1ccccc1', 'LNCaP', 'Activity', 'inactive'),
  ('COC1=C(Br)C[C@@]2(OC=C1Br)ON=C(C(=O)NCCCOc1c(Br)cc(CCN(C)C(=O)NCc3ccc(OC)cc3)cc1Br)[C@H]2O', 'LNCaP', 'Activity', 'inactive'),
  ('COC1=C(Br)C[C@@]2(OC=C1Br)ON=C(C(=O)NCCCOc1c(Br)cc(CCN(C)C(=O)NCCc3ccc(F)cc3)cc1Br)[C@H]2O', 'LNCaP', 'Activity', 'Active'),
  ('COC1=C(Br)C[C@@]2(OC=C1Br)ON=C(C(=O)NCCCOc1c(Br)cc(CCN(C)C(=O)NC3CCCC3)cc1Br)[C@H]2O', 'LNCaP', 'Activity', 'Active'),
  ('C=CCNC(=O)N(C)CCc1cc(Br)c(OCCCNC(=O)C2=NO[C@]3(CC(Br)=C(OC)C(Br)=CO3)[C@@H]2O)c(Br)c1', 'LNCaP', 'Activity', 'Active'),
  ('COC1=C(Br)C[C@@]2(OC=C1Br)ON=C(C(=O)NCCCOc1c(Br)cc(CCN(C)C(=O)Nc3cccc(OC)c3OC)cc1Br)[C@H]2O', 'LNCaP', 'Activity', 'inactive'),
  ('COC1=C(Br)C[C@@]2(OC=C1Br)ON=C(C(=O)NCCCOc1c(Br)cc(CCN(C)C(=O)Nc3ccc(C(C)=O)cc3)cc1Br)[C@H]2O', 'LNCaP', 'Activity', 'Active'),
  ('COC1=C(Br)C[C@@]2(OC=C1Br)ON=C(C(=O)NCCCOc1c(Br)cc(CCN(C)C(=O)C(C)(C)C)cc1Br)[C@H]2OC(=O)C(C)(C)C', 'LNCaP', 'Activity', 'Active');
